Value source: paper PMC7826789

tested on: ERBB3; details: Compound Concentration (nM):1000;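 note: KINOMEscan scanMAX binding as percent activity remaining versus control; lower means stronger binding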
Field: Percent Control. Provide a value for each of the molecules that follow.

Examples from the recorded data:
[[record]]
molecule = "Cl.O=C(Nc1ccc(Oc2ccc3[nH]c(NC(=O)c4ccccc4)nc3c2)cc1)Nc1cc(C(F)(F)F)ccc1F [GW709042A]"
experimental_readout = "Percent Control"
result_value = "70%"

[[record]]
molecule = "C[C@@H](Oc1cc(-n2cnc3ccc(OC4CCN(C)CC4)cc32)sc1C(N)=O)c1ccccc1Cl [GSK579289A]"
experimental_readout = "Percent Control"
result_value = "85%"

[[record]]
molecule = "COc1cccc(-n2ncc3c(N/N=C/c4ccncc4)ncnc32)c1 [GW784752X]"
experimental_readout = "Percent Control"
result_value = "4.9%"


With those in mind, consider the next molecule.
Prompt: Read off the recorded Percent Control for NS(=O)(=O)c1ccc(N/N=C2\C(=O)Nc3ccc(C(=O)NCc4ccncc4)cc32)cc1 [GW300657X]
Completion: 53%

* * *

system: p38-delta; construct: gene MAPK13; conditions: Compound Concentration (nM):1000
experimental readout: Percent Control (%)
One number for each entry, in %.

Examples from the recorded data:
[[record]]
molecule = "NS(=O)(=O)c1ccc(N/N=C2\\C(=O)Nc3ccc(Cl)cc32)cc1 [GW280670X]"
result_value = 100

[[record]]
molecule = "NS(=O)(=O)c1ccc(Nc2ncc(-c3ccccc3)o2)cc1 [GW572399X]"
result_value = 100

[[record]]
molecule = "CN(C)c1cc2c(Nc3ccc4c(cnn4Cc4ccccc4)c3)ncnc2cn1 [GW282974X]"
result_value = 99

[[record]]
molecule = "COc1ccccc1-c1cc(/C=C2\\C(=O)Nc3ncc(Br)cc32)cc(Br)c1O [GW442130X]"
result_value = 67


Quick request: Percent Control for each listed item, please.
1. C/C(Nc1ccc(S(N)(=O)=O)cc1)=C1/C(=O)Nc2ccccc21 [GW335962X]
2. COc1cc2ncn(-c3cc(O[C@H](C)c4ccccc4Cl)c(C(N)=O)s3)c2cc1OC [GSK237701A]
3. O=C1Nc2ccc(C(=O)c3ccco3)cc2C1=Cc1cc(Cl)c(O)c(Cl)c1 [GW406108X]

Completion:
1. 100
2. 100
3. 100

* * *

system: MLK3; construct: gene MAP3K11; conditions: Compound Concentration (nM):1000
Field: Percent Control. Provide a value for each of the compounds that follow.
Give bare numbers, in %.

[[record]]
compound = "Cl.O=C(Nc1ccc(Oc2ccc3[nH]c(NC(=O)c4ccccc4)nc3c2)cc1)Nc1cc(C(F)(F)F)ccc1F [GW709042A]"
test_system = "MLK3"
display_unit = "%"
result_value = 73

[[record]]
compound = "CCS(=O)(=O)c1ccc(OC)c(Nc2ncc(-c3cccc(OC)c3)o2)c1 [GW580509X]"
test_system = "MLK3"
display_unit = "%"
result_value = 96


With those in mind, consider the next compound.
Prompt: Read off the recorded Percent Control for COC(=O)Nc1nc2ccc(Oc3ccc(NC(=O)Nc4cc(C(F)(F)F)ccc4F)cc3)cc2s1.Cl [GW693917A]
Completion: 100

* * *

tested on: CSNK1G2; conditions: Compound Concentration (nM):1000
Field: Percent Control. Provide a value for each of the compounds that follow.
Value and unit, in that order.

Examples from the recorded data:
[[record]]
compound = "NS(=O)(=O)c1ccc(N/N=C2\\C(=O)Nc3ccc(C(=O)NCCc4c[nH]cn4)cc32)cc1 [GW300660X]"
result_value = "100%"

[[record]]
compound = "CC1=C(C(=O)Nc2ccc3[nH]ncc3c2)C(c2ccc(Cl)c(Cl)c2)CC(=O)N1 (centres unmarked) [GSK299115A]"
result_value = "88%"

[[record]]
compound = "COc1cc(C=NNc2ncnc3c2cnn3-c2ccccc2)ccc1O [GW513184X]"
result_value = "57%"

[[record]]
compound = "COc1cc(N2CCN(C(C)C)CC2)ccc1Nc1nc(Nc2ccc(F)cc2C(=O)NC[C@@H](O)CO)c2cc[nH]c2n1 [GSK1392956A]"
result_value = "32%"

[[record]]
compound = "CN(C)CCNC(=O)Nc1ccc(N(C)c2ccnc(Nc3ccc(CS(C)(=O)=O)cc3)n2)cc1.Cl [GW830900A]"
result_value = "96%"


Quick request: Percent Control for each listed item, please.
1. CCS(=O)(=O)c1ccc(OC)c(Nc2ncc(-c3cccc(OC)c3)o2)c1 [GW580509X]
2. CCS(=O)(=O)c1ccc(OC)c(Nc2ncc(-c3cccc(F)c3)o2)c1 [GW621970X]
3. C/C(Nc1ccc(S(N)(=O)=O)cc1)=C1/C(=O)Nc2ccccc21 [GW335962X]
4. CC1=C(C(=O)Nc2ccc3[nH]ncc3c2)C(c2ccc3ccccc3c2)CC(=O)N1 (centres unmarked) [GSK270822A]
5. COc1cccc(-c2c[nH]c3c(N/N=C/c4ccncc4)ncnc23)c1 [GW814408X]
6. Cl.O=C(Nc1ccc(Oc2ccc3[nH]c(NC(=O)c4ccccc4)nc3c2)cc1)Nc1cc(C(F)(F)F)ccc1F [GW709042A]

Completion:
1. 100%
2. 100%
3. 85%
4. 89%
5. 90%
6. 100%
